Tested on: KRAS-mutant PDC tumor spheroid with HUVEC/MSC, viability
PROTOCOL_NOTES: Anticancer human tumor 327498-153-R-J2-PDC patient-derived uterine carcinosarcoma cell line growth inhibition [KRAS2]
TEST_CONDITIONS: second compound 0.1 µM; first compound 0.01 µM; hits give low values
From the text: Multicellular complex tumor spheroid response to RAS pathway inhibitors in combination with a targeted agents in patient-derived cell lines with oncogenic KRAS variants from multiple cancer types A high-throughput screen of multi-cell type tumor spheroids was designed to identify active combinations of targeted small molecules and KRAS pathway inhibitors. […] Compounds. […] If the clinical Cmax for an agent had not been determined, the highest concentration tested was 10 microM. […]
PROPERTY_MEASURED: viability, T/C (%)
Use % as the unit, but write only the number.

stdin: Report viability, T/C for CC1COCCN1c1cc(-c2ccnn2C)c2ccnc(-c3ccn[nH]3)c2n1 (stereo not given) + C=CC(=O)N1CCN(c2nc(OCC3CCCN3C)nc3c2CCN(c2cccc4cccc(C)c24)C3)CC1CC#N
stdout: 50.2

stdin: Report viability, T/C for CCN1CCN(Cc2ccc(Nc3ncc(F)c(-c4cc(F)c5nc(C)n(C(C)C)c5c4)n3)nc2)CC1 + C=CC(=O)N1CCN(c2nc(=O)n(-c3c(C)ccnc3C(C)C)c3nc(-c4c(O)cccc4F)c(F)cc23)C(C)C1
stdout: 42.5

stdin: Report viability, T/C for CC1COCCN1c1cc(-c2ccnn2C)c2ccnc(-c3ccn[nH]3)c2n1 (stereo not given) + CC1OCC2(CCN(c3cnc(Sc4ccnc(N)c4Cl)c(N)n3)CC2)C1N
stdout: 70

stdin: Report viability, T/C for CC(=O)OC12COC1CC(O)C1(C)C(=O)C(O)C3=C(C)C(OC(=O)C(O)C(NC(=O)OC(C)(C)C)c4ccccc4)CC(O)(C(OC(=O)c4ccccc4)C21)C3(C)C (stereo not given) + C=CC(=O)N1CCN(c2nc(=O)n(-c3c(C)ccnc3C(C)C)c3nc(-c4c(O)cccc4F)c(F)cc23)C(C)C1
stdout: 8.43

stdin: Report viability, T/C for Cn1ncnc1[C@H]1c2n[nH]c(=O)c3cc(F)cc(c23)N[C@@H]1c1ccc(F)cc1 + C=CC(=O)N1CCN(c2nc(=O)n(-c3c(C)ccnc3C(C)C)c3nc(-c4c(O)cccc4F)c(F)cc23)C(C)C1
stdout: 36.1

stdin: Report viability, T/C for CCN1CCN(Cc2ccc(Nc3ncc(F)c(-c4cc(F)c5nc(C)n(C(C)C)c5c4)n3)nc2)CC1 + CNCc1ccccc1-c1csc(C(C)Nc2nc(C)nc3cc(OC)c(OC)cc23)c1
stdout: 58.8

stdin: Report viability, T/C for CC(=O)Nc1cccc(-n2c(=O)n(C3CC3)c(=O)c3c(Nc4ccc(I)cc4F)n(C)c(=O)c(C)c32)c1 + COc1cc2nc(C)nc(NC(C)c3cc(N)cc(C(F)(F)F)c3)c2cc1OC1CCOC1
stdout: 46.1

stdin: Report viability, T/C for CN(C)C/C=C/C(=O)Nc1cc2c(Nc3ccc(F)c(Cl)c3)ncnc2cc1O[C@H]1CCOC1 + CC1OCC2(CCN(c3cnc(Sc4ccnc(N)c4Cl)c(N)n3)CC2)C1N
stdout: 71

stdin: Report viability, T/C for CC1COCCN1c1cc(-c2ccnn2C)c2ccnc(-c3ccn[nH]3)c2n1 (stereo not given) + COc1cc2nc(C)nc(NC(C)c3cc(N)cc(C(F)(F)F)c3)c2cc1OC1CCOC1
stdout: 63.9

stdin: Report viability, T/C for CC(C)n1nc(-c2ccc3oc(N)nc3c2)c2c(N)ncnc21 + C=CC(=O)N1CCN(c2nc(=O)n(-c3c(C)ccnc3C(C)C)c3nc(-c4c(O)cccc4F)c(F)cc23)C(C)C1
stdout: 17.6

* * *

Test system: KRAS-mutant PDC tumor spheroid with HUVEC/MSC, viability
PROTOCOL_NOTES: Anticancer human tumor 327498-153-R-J2-PDC cell line growth inhibition [KRAS2];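 further: spheroids exposed to agents for seven days before reading; 100% = DMSO vehicle wells so lower means fewer viable cells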
TEST_CONDITIONS: second compound 0.316 µM; first compound 1 µM; hits give low values
Can you tell me viability, T/C for the items I'm about to list?
Use % as the unit, but write only the number.

stdin: Report viability, T/C for COc1cc2nccc(Oc3ccc(NC(=O)C4(C(=O)Nc5ccc(F)cc5)CC4)cc3)c2cc1OC + COc1cc2nc(C)nc(NC(C)c3cc(N)cc(C(F)(F)F)c3)c2cc1OC1CCOC1
stdout: 28.7

stdin: Report viability, T/C for CC1(C)CCC(CN2CCN(c3ccc(C(=O)NS(=O)(=O)c4ccc(NCC5CCOCC5)c([N+](=O)[O-])c4)c(Oc4cnc5[nH]ccc5c4)c3)CC2)=C(c2ccc(Cl)cc2)C1 + C=CC(=O)N1CCN(c2nc(OCC3CCCN3C)nc3c2CCN(c2cccc4cccc(C)c24)C3)CC1CC#N
stdout: 52.2

stdin: Report viability, T/C for O=C(c1cc(Cc2n[nH]c(=O)c3ccccc23)ccc1F)N1CCN(C(=O)C2CC2)CC1 + CC1OCC2(CCN(c3cnc(Sc4ccnc(N)c4Cl)c(N)n3)CC2)C1N
stdout: 52.2

stdin: Report viability, T/C for O=C(c1cc(Cc2n[nH]c(=O)c3ccccc23)ccc1F)N1CCN(C(=O)C2CC2)CC1 + CNCc1ccccc1-c1csc(C(C)Nc2nc(C)nc3cc(OC)c(OC)cc23)c1
stdout: 69.5

stdin: Report viability, T/C for CCN1CCN(Cc2ccc(Nc3ncc(F)c(-c4cc(F)c5nc(C)n(C(C)C)c5c4)n3)nc2)CC1 + COc1cc2nc(C)nc(NC(C)c3cc(N)cc(C(F)(F)F)c3)c2cc1OC1CCOC1
stdout: 41.2

stdin: Report viability, T/C for Cn1nccc1Nc1nccc(-c2cc3c(s2)C(C)(C)N(CCN2CCOCC2)C3=O)n1 + C=CC(=O)N1CCN(c2nc(=O)n(-c3c(C)ccnc3C(C)C)c3nc(-c4c(O)cccc4F)c(F)cc23)C(C)C1
stdout: 54

stdin: Report viability, T/C for CC1COCCN1c1cc(-c2ccnn2C)c2ccnc(-c3ccn[nH]3)c2n1 (stereo not given) + C=CC(=O)N1CCN(c2nc(OCC3CCCN3C)nc3c2CCN(c2cccc4cccc(C)c24)C3)CC1CC#N
stdout: 4.61

stdin: Report viability, T/C for CC1OCC2(CCN(c3cnc(Sc4ccnc(N)c4Cl)c(N)n3)CC2)C1N (stereo not given) + CNCc1ccccc1-c1csc(C(C)Nc2nc(C)nc3cc(OC)c(OC)cc23)c1
stdout: 31

stdin: Report viability, T/C for COC(=O)c1ccc2c(C(=Nc3ccc(N(C)C(=O)CN4CCN(C)CC4)cc3)c3ccccc3)c(O)[nH]c2c1 + C=CC(=O)N1CCN(c2nc(=O)n(-c3c(C)ccnc3C(C)C)c3nc(-c4c(O)cccc4F)c(F)cc23)C(C)C1
stdout: 12.5

stdin: Report viability, T/C for CC1(C)CCC(CN2CCN(c3ccc(C(=O)NS(=O)(=O)c4ccc(NCC5CCOCC5)c([N+](=O)[O-])c4)c(Oc4cnc5[nH]ccc5c4)c3)CC2)=C(c2ccc(Cl)cc2)C1 + COc1cc2nc(C)nc(NC(C)c3cc(N)cc(C(F)(F)F)c3)c2cc1OC1CCOC1
stdout: 71.1

stdin: Report viability, T/C for Cn1nccc1Nc1nccc(-c2cc3c(s2)C(C)(C)N(CCN2CCOCC2)C3=O)n1 + CC1OCC2(CCN(c3cnc(Sc4ccnc(N)c4Cl)c(N)n3)CC2)C1N
stdout: 40.4

stdin: Report viability, T/C for CC(C)NCC(C(=O)N1CCN(c2ncnc3c2C(C)CC3O)CC1)c1ccc(Cl)cc1 (stereo not given) + C=CC(=O)N1CCN(c2nc(=O)n(-c3c(C)ccnc3C(C)C)c3nc(-c4c(O)cccc4F)c(F)cc23)C(C)C1
stdout: 13.5

stdin: Report viability, T/C for COC(=O)c1ccc2c(C(=Nc3ccc(N(C)C(=O)CN4CCN(C)CC4)cc3)c3ccccc3)c(O)[nH]c2c1 + CC1OCC2(CCN(c3cnc(Sc4ccnc(N)c4Cl)c(N)n3)CC2)C1N
stdout: 34.5

stdin: Report viability, T/C for CC(=O)OC12COC1CC(O)C1(C)C(=O)C(O)C3=C(C)C(OC(=O)C(O)C(NC(=O)OC(C)(C)C)c4ccccc4)CC(O)(C(OC(=O)c4ccccc4)C21)C3(C)C (stereo not given) + COc1cc2nc(C)nc(NC(C)c3cc(N)cc(C(F)(F)F)c3)c2cc1OC1CCOC1
stdout: 9.71

stdin: Report viability, T/C for CC1OCC2(CCN(c3cnc(Sc4ccnc(N)c4Cl)c(N)n3)CC2)C1N (stereo not given) + COc1cc2nc(C)nc(NC(C)c3cc(N)cc(C(F)(F)F)c3)c2cc1OC1CCOC1
stdout: 32.3

stdin: Report viability, T/C for CC1(C)CCC(CN2CCN(c3ccc(C(=O)NS(=O)(=O)c4ccc(NCC5CCOCC5)c([N+](=O)[O-])c4)c(Oc4cnc5[nH]ccc5c4)c3)CC2)=C(c2ccc(Cl)cc2)C1 + CC1OCC2(CCN(c3cnc(Sc4ccnc(N)c4Cl)c(N)n3)CC2)C1N
stdout: 56.4

stdin: Report viability, T/C for COc1cc2nccc(Oc3ccc(NC(=O)C4(C(=O)Nc5ccc(F)cc5)CC4)cc3)c2cc1OC + C=CC(=O)N1CCN(c2nc(=O)n(-c3c(C)ccnc3C(C)C)c3nc(-c4c(O)cccc4F)c(F)cc23)C(C)C1
stdout: 54.5

stdin: Report viability, T/C for CCNC(=O)CC1N=C(c2ccc(Cl)cc2)c2cc(OC)ccc2-n2c(C)nnc21 (stereo not given) + C=CC(=O)N1CCN(c2nc(=O)n(-c3c(C)ccnc3C(C)C)c3nc(-c4c(O)cccc4F)c(F)cc23)C(C)C1
stdout: 33.5

stdin: Report viability, T/C for COc1cc(Nc2ncc3c(n2)-c2ccc(Cl)cc2C(c2c(F)cccc2OC)=NC3)ccc1C(=O)O + C=CC(=O)N1CCN(c2nc(=O)n(-c3c(C)ccnc3C(C)C)c3nc(-c4c(O)cccc4F)c(F)cc23)C(C)C1
stdout: 9.91

stdin: Report viability, T/C for Cn1nccc1Nc1nccc(-c2cc3c(s2)C(C)(C)N(CCN2CCOCC2)C3=O)n1 + CNCc1ccccc1-c1csc(C(C)Nc2nc(C)nc3cc(OC)c(OC)cc23)c1
stdout: 50.2
